# Assay Notes: Tamper resistance: percent of OC released under tampering conditions, LC-MS/MS
# Format: physicochemical
# Measurement Parameters: Water, RT, 1 hour

| Compound | percent of OC released, % |
| --- | --- |
| COc1ccc2c3c1O[C@H]1C(OC(=O)c4cccc(N)c4)=CC[C@@]4(OC(=O)c5cccc(N)c5)[C@@H](C2)N(C)CC[C@]314 [(3-ABz)2-OC] | 0 |
| COc1ccc2cc(C(C)C(=O)OC3=CCC4(O)C5Cc6ccc(OC)c7c6C4(CCN5C)C3O7)ccc2c1 (stereo not shown) [Naprox-OC] | 0 |
| COc1ccc2c3c1O[C@H]1C(OC(=O)c4cccc(O)c4)=CC[C@@]4(O)[C@@H](C2)N(C)CC[C@]314 [Conjugate 3-OH-Bz-OC] | 0 |
| COc1ccc2c3c1O[C@H]1C(OC(=O)c4ccc(O)cc4)=CC[C@@]4(OC(=O)c5ccc(O)cc5)[C@@H](C2)N(C)CC[C@]314 [(4-OH-Bz)2-OC] | 0 |
| COc1ccc2c3c1OC1C(OC(=O)C(C)c4ccc(CC(C)C)cc4)=CCC4(O)C(C2)N(C)CCC314 (mixture of isomers) [Conjugate 6-lbu-OC] | 0 |
| COc1ccc2c3c1O[C@H]1C(OC(=O)c4ccccc4)=CC[C@@]4(O)[C@@H](C2)N(C)CC[C@]314 [Bz-OC] | 0 |
| COc1ccc2c3c1O[C@H]1C(OC(=O)/C=C/c4ccccc4)=CC[C@@]4(OC(=O)/C=C/c5ccccc5)[C@@H](C2)N(C)CC[C@]314 [(Cin)2-OC] | 0 |

Data provenance: patent US10544153B2
